# assay.target: human orexin 2 receptor (Homo sapiens)
# Construct: expressed in transfected cells
# Sequence (O43614 1-444): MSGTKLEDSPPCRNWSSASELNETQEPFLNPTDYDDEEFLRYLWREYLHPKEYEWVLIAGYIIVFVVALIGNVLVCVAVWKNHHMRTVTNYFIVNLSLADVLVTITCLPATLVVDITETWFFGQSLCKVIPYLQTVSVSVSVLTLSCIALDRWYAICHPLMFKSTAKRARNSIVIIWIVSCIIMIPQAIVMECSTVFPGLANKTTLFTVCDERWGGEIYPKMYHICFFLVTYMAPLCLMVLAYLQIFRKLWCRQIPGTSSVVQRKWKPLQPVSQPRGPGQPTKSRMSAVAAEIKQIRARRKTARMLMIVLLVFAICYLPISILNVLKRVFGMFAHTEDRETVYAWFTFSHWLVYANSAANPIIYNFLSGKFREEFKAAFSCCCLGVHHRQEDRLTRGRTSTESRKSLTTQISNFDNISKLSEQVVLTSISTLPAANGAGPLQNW
# assay.procedure: Calcium accumulation in cells (FLIPR), antagonism of orexin A, human orexin 2 receptor
# Assay type: cell-based
# setup.conditions: measured at a concentration of 10 μM of compound; read-out: FLIPR hOx2R % inhibition
// reported inhibition at 10 µM per item
Kindly provide the numeric value in % only, without the unit symbol.

Example entries and their recorded answers appear below.
>>> df
                                   molecule                            assay_target  reported_result
0  Cc1cc(C)nc(N2CCC3(CC2)OCCN(Cc2nnn(C)c2-c2ccccc2)C3=O)n1  human orexin 2 receptor (Homo sapiens)               27
1  COc1cc(C)nc(N2CCC3(CCN(Cc4nn(C)nc4Br)C3=O)C2)n1 (centres unmarked)  human orexin 2 receptor (Homo sapiens)               21
2  O=C1N(Cc2c[nH]c3ccccc23)CCC12CCN(c1ccc(-n3ccnc3)nn1)C2 (centres unmarked)  human orexin 2 receptor (Homo sapiens)               33
3  Cc1cncc(N2CCC3(CC2)COC(=O)N3Cc2c[nH]c3ccccc23)n1  human orexin 2 receptor (Homo sapiens)               20
4  Cc1cc(C)nc(N2CCC3(CC2)NCCN(Cc2nn(C)cc2-c2ccc(C#N)cc2)C3=O)n1  human orexin 2 receptor (Homo sapiens)               45

According to the records, this molecule Cc1cc(N2CCOCC2)nc(N2CCC3(CCN(Cc4c[nH]c5ccccc45)C3=O)C2)n1 (centres unmarked) displays inhibition at 10 µM of 66

Input O=C1N(Cc2c[nH]c3ccccc23)CCC12CCN(c1cc3c(nn1)CCOC3)C2 (centres unmarked) . Output inhibition at 10 µM: 54
